Values compiled from ChEMBL document CHEMBL5096151.

TARGET DESC: Transient receptor potential cation channel subfamily V member 5 (Homo sapiens, UniProt Q9NQA5)
Sequence (Q9NQA5 whole entry): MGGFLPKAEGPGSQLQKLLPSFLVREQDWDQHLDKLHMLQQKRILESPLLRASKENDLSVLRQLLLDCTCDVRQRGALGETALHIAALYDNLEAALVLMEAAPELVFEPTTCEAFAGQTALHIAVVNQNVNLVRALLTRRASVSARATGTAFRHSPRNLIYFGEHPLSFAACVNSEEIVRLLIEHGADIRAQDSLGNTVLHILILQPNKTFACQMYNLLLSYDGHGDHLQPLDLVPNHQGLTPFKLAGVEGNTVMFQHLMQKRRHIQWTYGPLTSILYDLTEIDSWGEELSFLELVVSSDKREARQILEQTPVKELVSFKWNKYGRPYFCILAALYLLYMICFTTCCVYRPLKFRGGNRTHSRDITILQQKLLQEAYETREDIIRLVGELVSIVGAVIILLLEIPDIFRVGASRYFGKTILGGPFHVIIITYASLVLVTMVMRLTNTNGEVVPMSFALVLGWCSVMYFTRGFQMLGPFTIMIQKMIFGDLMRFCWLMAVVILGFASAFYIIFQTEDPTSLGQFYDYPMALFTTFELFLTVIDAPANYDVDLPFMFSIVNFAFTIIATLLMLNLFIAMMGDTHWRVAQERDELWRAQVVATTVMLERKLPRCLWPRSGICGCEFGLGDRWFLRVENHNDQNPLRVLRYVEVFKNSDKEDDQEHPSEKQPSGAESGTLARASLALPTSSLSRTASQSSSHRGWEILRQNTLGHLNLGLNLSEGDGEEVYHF
METHOD: Inhibition of TRPV5 channel (unknown origin) by Patch-clamp assay
READOUT KIND: pIC50
Answer as the number alone; pIC50 is minus log10 of concentration in mol/L.

Looking up CCCc1cc(O)c2c(c1)OC(C)(C)[C@@H]1CCC(C)=C[C@@H]21 [TETRAHYDROCANNABIVARIN] , I see its pIC50 listed as 5.32

====

TARGET DESC: Transient receptor potential cation channel subfamily A member 1 (Homo sapiens, UniProt O75762)
Sequence (O75762 whole entry): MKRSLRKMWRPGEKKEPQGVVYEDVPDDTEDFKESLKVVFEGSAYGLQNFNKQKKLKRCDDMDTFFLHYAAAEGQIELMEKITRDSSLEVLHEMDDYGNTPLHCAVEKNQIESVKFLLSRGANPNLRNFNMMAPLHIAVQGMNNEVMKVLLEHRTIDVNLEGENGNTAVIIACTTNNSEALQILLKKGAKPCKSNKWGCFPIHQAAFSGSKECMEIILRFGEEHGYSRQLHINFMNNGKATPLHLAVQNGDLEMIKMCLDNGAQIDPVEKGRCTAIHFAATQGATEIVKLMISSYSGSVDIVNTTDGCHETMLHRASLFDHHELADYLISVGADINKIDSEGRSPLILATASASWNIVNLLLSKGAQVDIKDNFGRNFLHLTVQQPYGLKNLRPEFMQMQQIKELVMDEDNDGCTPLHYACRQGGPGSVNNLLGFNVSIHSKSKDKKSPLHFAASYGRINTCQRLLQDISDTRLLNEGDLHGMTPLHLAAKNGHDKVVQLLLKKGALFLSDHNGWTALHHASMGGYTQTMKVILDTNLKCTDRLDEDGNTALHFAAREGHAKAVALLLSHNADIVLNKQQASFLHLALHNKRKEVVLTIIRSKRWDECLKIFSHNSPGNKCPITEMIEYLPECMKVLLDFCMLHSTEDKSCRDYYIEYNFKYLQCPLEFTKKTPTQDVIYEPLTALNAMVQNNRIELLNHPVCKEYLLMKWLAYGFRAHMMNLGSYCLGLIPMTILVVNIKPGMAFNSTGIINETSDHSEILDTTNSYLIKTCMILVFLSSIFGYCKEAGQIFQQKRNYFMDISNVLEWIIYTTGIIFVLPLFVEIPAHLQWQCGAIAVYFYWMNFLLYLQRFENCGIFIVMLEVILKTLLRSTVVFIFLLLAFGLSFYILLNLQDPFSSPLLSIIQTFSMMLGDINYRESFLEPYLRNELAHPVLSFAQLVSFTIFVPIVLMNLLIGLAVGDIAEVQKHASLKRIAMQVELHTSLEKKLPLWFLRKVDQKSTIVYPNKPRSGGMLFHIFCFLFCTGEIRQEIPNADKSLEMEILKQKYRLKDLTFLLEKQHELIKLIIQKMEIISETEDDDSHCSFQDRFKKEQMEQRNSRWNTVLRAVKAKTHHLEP
METHOD: Agonist activity at TRPA1 (unknown origin) channel desensitization in presence of isothiocyanate
READOUT KIND: pIC50
Answer as the number alone; pIC50 is minus log10 of concentration in mol/L.

CCCCCc1cc(O)c(C/C=C(\C)CCC=C(C)C)c(O)c1 ... 4.89
C=C(C)[C@@H]1CCC(C)=C[C@H]1c1c(O)cc(CCC)cc1O ... 5.89
CCCc1cc(O)c2c(c1)OC(C)(C)c1ccc(C)cc1-2 ... 6.77
CCCCCc1cc(O)c2c(c1)OC(C)(CCC=C(C)C)C=C2 (stereo unspecified) ... 6.43
CCCCCc1cc(O)c2c(c1)OC(C)(C)c1ccc(C)cc1-2 ... 6.40

# context switch: different compound, same pIC50
Looking up CCCc1cc(O)c2c(c1)OC(C)(C)[C@@H]1CCC(C)=C[C@@H]21 [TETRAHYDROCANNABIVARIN] , I see its pIC50 listed as 5.51

====

TARGET DESC: Cannabinoid receptor 2 (Homo sapiens, UniProt P34972)
METHOD: Agonist activity at human CB2 receptor transfected in CHO cells assessed as inhibition of cyclic AMP production
Assay type: functional, cell-based
READOUT KIND: EC50 (µM)
Enter your answer as a number in µM; do not include the unit.

Looking up CCCc1cc(O)c2c(c1)OC(C)(C)[C@@H]1CCC(C)=C[C@@H]21 [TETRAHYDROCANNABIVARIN] , I see its EC50 listed as 0.038

====

Measured pIC50 accompanies every entry in the list below.
TARGET DESC: UniProtKB Q8NER1
METHOD: Agonist activity at ionomycin-stimulated TRPV1 (unknown origin) channel desensitization in presence of capsaicin
Answer as the number alone; pIC50 is minus log10 of concentration in mol/L.

Here are 3 compounds together with their reported answers.
CCCc1cc(O)c2c(c1)OC(C)(C)[C@@H]1CCC(C)=C[C@@H]21 [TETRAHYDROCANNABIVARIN] ... 5.89
CCCc1cc(O)c2c(c1)OC(C)(C)c1ccc(C)cc1-2 ... 4.92
CCCCCc1cc(O)c2c(c1)OC(C)(C)c1ccc(C)cc1-2 [CANNABINOL] ... 4.09

# context switch: different compound, same pIC50
Looking up C=C(C)[C@@H]1CCC(C)=C[C@H]1c1c(O)cc(CCC)cc1O [CANNABIDIVARIN] , I see its pIC50 listed as 5.00

====

TARGET DESC: Cannabinoid receptor 1 (Homo sapiens, UniProt P21554)
Sequence (P21554 whole entry): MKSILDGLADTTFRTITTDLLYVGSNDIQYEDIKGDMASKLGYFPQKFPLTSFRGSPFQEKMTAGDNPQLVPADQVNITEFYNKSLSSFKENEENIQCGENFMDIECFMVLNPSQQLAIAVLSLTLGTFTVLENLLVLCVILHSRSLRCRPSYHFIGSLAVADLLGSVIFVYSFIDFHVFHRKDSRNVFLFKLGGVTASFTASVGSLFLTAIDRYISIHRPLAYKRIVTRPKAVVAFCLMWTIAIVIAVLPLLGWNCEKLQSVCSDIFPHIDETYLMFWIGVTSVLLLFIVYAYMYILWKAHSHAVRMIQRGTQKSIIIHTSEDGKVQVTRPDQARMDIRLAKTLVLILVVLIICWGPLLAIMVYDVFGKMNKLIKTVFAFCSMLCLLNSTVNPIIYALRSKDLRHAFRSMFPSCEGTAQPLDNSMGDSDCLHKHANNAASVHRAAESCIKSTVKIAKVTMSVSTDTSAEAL
METHOD: Binding affinity to CB1 (unknown origin) receptor assessed as inhibition constant
READOUT KIND: pKi
Answer as the number alone; pKi is minus log10 of concentration in mol/L.

CCCCCCCc1cc(O)c2c(c1)OC(C)(C)[C@@H]1CCC(C)=C[C@@H]21 ... 6.89

# context switch: different compound, same pKi
Looking up CCCc1cc(O)c2c(c1)OC(C)(C)[C@@H]1CCC(C)=C[C@@H]21 [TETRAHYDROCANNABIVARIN] , I see its pKi listed as 6.00

====

TARGET DESC: Transient receptor potential cation channel subfamily M member 8 (Homo sapiens)
METHOD: Antagonist activity at TRPM8 (unknown origin) desensitization in presence of icilin
READOUT KIND: IC50 (nM)
Enter your answer as a number in nM; do not include the unit.

Value (IC50, Transient receptor potential cation channel subfamily M member 8 (Homo sapiens)) for record C=C(C)[C@@H]1CCC(C)=C[C@H]1c1c(O)cc(CCC)cc1O [CANNABIDIVARIN] = 900

====

TARGET DESC: Cannabinoid receptor 1 (Mus musculus)
Sequence (P47746 whole entry): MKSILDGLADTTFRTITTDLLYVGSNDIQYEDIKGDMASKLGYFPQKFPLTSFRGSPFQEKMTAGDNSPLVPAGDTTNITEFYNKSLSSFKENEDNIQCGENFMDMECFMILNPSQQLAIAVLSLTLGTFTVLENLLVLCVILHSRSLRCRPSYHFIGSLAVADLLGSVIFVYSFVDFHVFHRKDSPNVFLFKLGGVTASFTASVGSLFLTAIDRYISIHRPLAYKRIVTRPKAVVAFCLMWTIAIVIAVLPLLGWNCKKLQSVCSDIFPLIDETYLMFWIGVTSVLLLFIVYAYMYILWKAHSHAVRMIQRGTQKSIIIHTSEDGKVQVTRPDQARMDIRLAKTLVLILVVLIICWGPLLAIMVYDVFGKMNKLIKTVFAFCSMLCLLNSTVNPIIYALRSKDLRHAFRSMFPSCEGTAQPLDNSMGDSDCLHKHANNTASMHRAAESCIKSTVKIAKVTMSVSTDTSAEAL
METHOD: Agonist activity at CB1 receptor in albino MF1 mouse vas deferens assessed as inhibition of electrically evoked vas deferens contraction by incubated for 13 mins followed by electrical stimulation for 2 mins
READOUT KIND: EC50 (µM)
Enter your answer as a number in µM; do not include the unit.

Looking up CCCc1cc(O)c2c(c1)OC(C)(C)[C@@H]1CCC(C)=C[C@@H]21 [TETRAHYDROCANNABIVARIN] , I see its EC50 listed as 12.7

====

TARGET DESC: Transient receptor potential cation channel subfamily V member 1 (Homo sapiens)
Sequence (Q8NER1 whole entry): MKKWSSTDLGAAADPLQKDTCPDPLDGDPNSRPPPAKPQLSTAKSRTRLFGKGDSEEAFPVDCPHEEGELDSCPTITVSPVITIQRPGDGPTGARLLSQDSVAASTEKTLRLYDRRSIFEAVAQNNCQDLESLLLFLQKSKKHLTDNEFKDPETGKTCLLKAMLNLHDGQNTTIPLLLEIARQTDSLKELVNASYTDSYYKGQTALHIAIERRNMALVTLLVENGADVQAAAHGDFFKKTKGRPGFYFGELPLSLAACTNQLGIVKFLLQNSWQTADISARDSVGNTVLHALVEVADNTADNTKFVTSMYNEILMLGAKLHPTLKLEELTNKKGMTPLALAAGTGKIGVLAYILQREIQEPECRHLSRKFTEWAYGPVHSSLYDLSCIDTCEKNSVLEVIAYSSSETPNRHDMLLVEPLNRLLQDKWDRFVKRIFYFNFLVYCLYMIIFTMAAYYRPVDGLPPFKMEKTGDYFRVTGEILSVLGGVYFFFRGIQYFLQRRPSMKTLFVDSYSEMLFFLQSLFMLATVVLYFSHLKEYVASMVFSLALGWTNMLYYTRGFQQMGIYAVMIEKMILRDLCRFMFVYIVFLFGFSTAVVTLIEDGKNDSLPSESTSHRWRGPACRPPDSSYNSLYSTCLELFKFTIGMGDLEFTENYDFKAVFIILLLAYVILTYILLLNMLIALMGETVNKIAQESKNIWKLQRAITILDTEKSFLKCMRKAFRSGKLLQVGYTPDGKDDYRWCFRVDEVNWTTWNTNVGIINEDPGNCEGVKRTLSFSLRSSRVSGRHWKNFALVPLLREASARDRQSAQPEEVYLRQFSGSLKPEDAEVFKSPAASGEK
METHOD: Agonist activity at ionomycin-stimulated TRPV1 (unknown origin) activation
Measured pEC50 accompanies every entry in the list below.
Answer as the number alone; pEC50 is minus log10 of concentration in mol/L.

C=C(C)[C@@H]1CCC(C)=C[C@H]1c1c(O)cc(CCC)cc1O ... 5.44
CCCCCc1cc(O)c2c(c1)OC(C)(CCC=C(C)C)C=C2 (stereo not drawn) ... 4.62

Value (pEC50, Transient receptor potential cation channel subfamily V member 1 (Homo sapiens)) for record CCCc1cc(O)c2c(c1)OC(C)(C)[C@@H]1CCC(C)=C[C@@H]21 [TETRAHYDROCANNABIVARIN] = 5.82

====

TARGET DESC: Transient receptor potential cation channel subfamily M member 8 (Homo sapiens, UniProt Q7Z2W7)
Sequence (Q7Z2W7 whole entry): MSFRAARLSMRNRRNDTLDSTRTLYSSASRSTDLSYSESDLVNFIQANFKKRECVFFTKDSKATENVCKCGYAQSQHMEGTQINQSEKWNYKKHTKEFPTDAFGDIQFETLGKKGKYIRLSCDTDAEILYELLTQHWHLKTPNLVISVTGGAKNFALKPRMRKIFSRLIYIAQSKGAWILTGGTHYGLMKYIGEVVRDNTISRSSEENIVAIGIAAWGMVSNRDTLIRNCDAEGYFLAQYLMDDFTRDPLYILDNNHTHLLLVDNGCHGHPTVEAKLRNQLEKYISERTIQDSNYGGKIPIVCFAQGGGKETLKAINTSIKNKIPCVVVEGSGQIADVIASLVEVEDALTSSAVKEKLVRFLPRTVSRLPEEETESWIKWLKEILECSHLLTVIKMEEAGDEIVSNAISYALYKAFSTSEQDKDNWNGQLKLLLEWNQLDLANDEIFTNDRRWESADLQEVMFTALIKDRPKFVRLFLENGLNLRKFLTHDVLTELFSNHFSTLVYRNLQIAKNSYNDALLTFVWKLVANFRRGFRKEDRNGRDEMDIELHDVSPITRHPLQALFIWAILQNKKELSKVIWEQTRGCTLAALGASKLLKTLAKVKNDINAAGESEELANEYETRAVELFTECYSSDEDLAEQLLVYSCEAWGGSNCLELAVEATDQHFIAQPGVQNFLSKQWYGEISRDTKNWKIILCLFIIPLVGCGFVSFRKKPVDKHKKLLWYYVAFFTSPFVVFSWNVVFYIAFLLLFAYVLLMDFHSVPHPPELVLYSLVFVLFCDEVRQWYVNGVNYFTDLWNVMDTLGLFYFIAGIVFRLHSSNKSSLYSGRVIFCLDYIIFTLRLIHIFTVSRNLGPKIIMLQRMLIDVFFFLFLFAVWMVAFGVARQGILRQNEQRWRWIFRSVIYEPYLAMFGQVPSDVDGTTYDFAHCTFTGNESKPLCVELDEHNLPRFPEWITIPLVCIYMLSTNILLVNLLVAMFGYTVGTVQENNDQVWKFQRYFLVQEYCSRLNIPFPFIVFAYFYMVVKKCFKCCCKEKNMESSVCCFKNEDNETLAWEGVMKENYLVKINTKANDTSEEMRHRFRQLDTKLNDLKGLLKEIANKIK
METHOD: Antagonist activity at TRPM8 (unknown origin) ion channel
READOUT KIND: IC50 (µM)
Enter your answer as a number in µM; do not include the unit.

CCCCCc1cc(O)c2c(c1)OC(C)(CCC=C(C)C)C=C2 (configuration not stated) ... 40.7

Looking up CCCc1cc(O)c2c(c1)OC(C)(C)[C@@H]1CCC(C)=C[C@@H]21 [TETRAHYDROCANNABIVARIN] , I see its IC50 listed as 0.02

====

Measured pEC50 accompanies every entry in the list below.
TARGET DESC: Transient receptor potential cation channel subfamily A member 1 (Homo sapiens)
METHOD: Agonist activity at TRPA1 (unknown origin) activation
Answer as the number alone; pEC50 is minus log10 of concentration in mol/L.

Here are 4 compounds together with their reported answers.
CCCCCc1cc(O)c2c(c1)OC(C)(C)c1ccc(C)cc1-2 [CANNABINOL] ... 6.74
C=C(C)[C@@H]1CCC(C)=C[C@H]1c1c(O)cc(CCC)cc1O [CANNABIDIVARIN] ... 6.38
CCCCCc1cc(O)c(C/C=C(\C)CCC=C(C)C)c(O)c1 [CANNABIGEROL] ... 6.15
CCCc1cc(O)c2c(c1)OC(C)(C)c1ccc(C)cc1-2 ... 6.70

Looking up CCCCCc1cc(O)c2c(c1)OC(C)(CCC=C(C)C)C=C2 (stereo unspecified) [CANNABICHROMENE] , I see its pEC50 listed as 7.05

Looking up CCCc1cc(O)c2c(c1)OC(C)(C)[C@@H]1CCC(C)=C[C@@H]21 [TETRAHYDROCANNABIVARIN] , I see its pEC50 listed as 5.82
